Taken from patent US6509356B1.

Test system: MCF-7 breast adenocarcinoma cells
Experiment: MCF-7 Proliferation Assay (tritiated thymidine incorporation)
Type: cell-based
Conditions: Homo sapiens, MCF7; MCF-7 cells (ATCC HTB 22) in DCC-FBS assay medium, 48 hours with drug, then tritiated thymidine pulse for 4 hours; read-out: Inhibition of MCF7 cell proliferation: ED50
Text: Biological Activity of the Compounds of the Present Invention—MCF-7 Proliferation Assay The data reported in each of the Examples given above for inhibition of MCF-7 cell proliferation were obtained in an assay which determined each compound's ability to inhibit the proliferation of MCF-7 breast adenocarcinoma cells. […]
Where a name gives a salt, the structure may show the parent alone.
readout_name: EC50 (nM)

Item: CN1CCCC(COc2ccc(Cc3c(-c4ccc(O)cc4)ccc4cc(O)ccc34)cc2)C1 (stereo not drawn) [Example 5, hydrochloride] | EC50: 2

[a] Oc1ccc(-c2ccc3cc(O)ccc3c2Cc2ccc(OCCCN3CCC4(CCCCC4)CC3)cc2)cc1 [Example 14, hydrochloride]
[b] CCCCN(CCCC)CCOc1ccc(Cc2c(-c3ccc(O)cc3)ccc3cc(O)ccc23)cc1 [Example 6, hydrochloride]
input: Would you let me know which has the greater EC50 value, a or b ? Answer = label.
output: a
(a: 30 nM, b: 2 nM)
